assay: Cmax in male C57BL/6 mouse at 20 mg/kg, ip measured after 24 hrs by LC-MS/MS analysis; assay type: ADME, organism-based; conditions: in vivo
PROPERTY NAME: Cmax (ng/mL)
Quick reminder: number only, in ng/mL, skip the unit.

Memo: Cn1ccc(-c2cc(Cl)c(Cl)c3[nH]c4c(c23)CN(C(=O)CNC(=O)CCCC#Cc2cccc3c2CN(C2CCC(=O)NC2=O)C3=O)CC4)n1 (stereo unspecified) , reported Cmax: 248

###

assay: MRT (0 to 24 hrs) in male C57BL/6 mouse at 1 mg/kg, iv measured after 24 hrs by LC-MS/MS analysis; format: ADME, organism-based; details: in vivo
PROPERTY NAME: MRT last at 24 h (min)
Quick reminder: number only, in min, skip the unit.

So, Cn1ccc(-c2cc(Cl)c(Cl)c3[nH]c4c(c23)CN(C(=O)CNC(=O)CCCC#Cc2cccc3c2CN(C2CCC(=O)NC2=O)C3=O)CC4)n1 (stereo unspecified) ? Its MRT last at 24 h was 54
